target.system: BRG-1 (Homo sapiens, UniProt P51532)
Sequence (P51532 whole entry): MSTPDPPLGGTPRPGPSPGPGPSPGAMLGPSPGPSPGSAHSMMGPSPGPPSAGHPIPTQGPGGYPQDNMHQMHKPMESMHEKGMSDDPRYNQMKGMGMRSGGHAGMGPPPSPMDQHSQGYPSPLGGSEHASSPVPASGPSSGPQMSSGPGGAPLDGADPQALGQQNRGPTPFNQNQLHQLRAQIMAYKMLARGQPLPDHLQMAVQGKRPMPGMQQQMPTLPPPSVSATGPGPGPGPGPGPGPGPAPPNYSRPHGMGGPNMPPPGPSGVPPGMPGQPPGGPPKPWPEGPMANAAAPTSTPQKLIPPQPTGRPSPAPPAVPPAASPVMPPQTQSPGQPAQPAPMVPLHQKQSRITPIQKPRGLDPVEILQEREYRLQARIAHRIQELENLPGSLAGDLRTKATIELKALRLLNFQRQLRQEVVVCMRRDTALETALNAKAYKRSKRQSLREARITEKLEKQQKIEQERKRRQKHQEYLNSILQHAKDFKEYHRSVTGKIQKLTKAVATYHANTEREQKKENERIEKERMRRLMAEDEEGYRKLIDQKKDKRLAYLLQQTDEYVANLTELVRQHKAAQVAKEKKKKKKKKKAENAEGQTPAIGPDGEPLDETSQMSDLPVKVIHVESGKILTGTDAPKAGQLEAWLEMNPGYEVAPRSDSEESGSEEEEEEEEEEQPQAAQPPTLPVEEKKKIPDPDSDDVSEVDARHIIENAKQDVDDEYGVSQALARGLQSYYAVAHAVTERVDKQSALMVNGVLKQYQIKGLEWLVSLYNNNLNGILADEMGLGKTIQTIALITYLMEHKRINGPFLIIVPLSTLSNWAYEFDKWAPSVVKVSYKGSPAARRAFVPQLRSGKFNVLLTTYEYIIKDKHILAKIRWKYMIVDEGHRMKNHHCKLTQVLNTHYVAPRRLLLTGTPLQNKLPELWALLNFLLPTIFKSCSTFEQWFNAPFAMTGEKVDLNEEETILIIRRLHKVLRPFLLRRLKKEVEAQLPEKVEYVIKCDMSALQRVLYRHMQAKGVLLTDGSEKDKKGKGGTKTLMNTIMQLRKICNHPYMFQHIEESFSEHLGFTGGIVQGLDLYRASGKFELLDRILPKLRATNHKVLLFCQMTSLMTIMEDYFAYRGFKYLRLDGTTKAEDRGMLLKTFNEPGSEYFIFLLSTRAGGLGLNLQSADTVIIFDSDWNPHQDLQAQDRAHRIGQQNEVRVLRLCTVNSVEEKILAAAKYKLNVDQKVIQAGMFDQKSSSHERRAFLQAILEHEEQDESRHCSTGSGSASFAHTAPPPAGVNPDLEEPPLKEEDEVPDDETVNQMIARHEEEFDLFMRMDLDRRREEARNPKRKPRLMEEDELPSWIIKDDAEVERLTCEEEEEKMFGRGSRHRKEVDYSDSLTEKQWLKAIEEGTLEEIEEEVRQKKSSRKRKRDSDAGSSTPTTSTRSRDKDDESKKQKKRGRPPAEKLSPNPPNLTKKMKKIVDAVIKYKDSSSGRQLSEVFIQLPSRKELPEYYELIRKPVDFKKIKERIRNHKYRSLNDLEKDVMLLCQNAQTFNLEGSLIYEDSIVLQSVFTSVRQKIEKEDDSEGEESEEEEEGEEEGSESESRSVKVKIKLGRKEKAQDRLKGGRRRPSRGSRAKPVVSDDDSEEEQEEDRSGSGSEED
experiment: ATPase catalytic activity assay of BRG-1 (ADP-Glo)
Format: biochemical
cond: ATPase catalytic activity, ADP-Glo; read-out: BRG1 Max % Inhibition
Let's look at some molecules and their measured Emax.

Known Emax results, listed for orientation:
>  <molecule>
COc1cccc(-c2csc(NC(=O)CNC(=O)c3cc(F)c4c(c3)C(C)(O)COC4)n2)c1 (stereo in doubt)

>  <target.system>
BRG-1 (Homo sapiens, UniProt P51532)

>  <Emax>
> 90%

$$$$
>  <molecule>
Cc1nccc(-c2cccc(-c3csc(NC(=O)CNC(=O)c4ccc5c(c4)[C@](C)(CO)CCC5)n3)n2)n1

>  <target.system>
BRG-1 (Homo sapiens, UniProt P51532)

>  <Emax>
< 30%

$$$$

Here is another molecule to look at.
Ask: Entry C[C@@H]1CN(c2cccc(-c3csc(NC(=O)CNC(=O)c4ccc5c(c4)C(F)(C(F)F)CCO5)n3)n2)C[C@H](C)O1 (stereo in doubt) [Compound 272] has what Emax?
Result: > 95%

* * *

target.system: UniProt:P51532
experiment: ATPase catalytic activity assay of BRG-1 (ADP-Glo)
Format: biochemical
cond: ATPase catalytic activity, ADP-Glo; read-out: BRG1 Max % Inhibition
Let's look at some molecules and their measured Emax.

Known Emax results, listed for orientation:
>  <molecule>
CC(C)(N)c1cccc(C(=O)NCC(=O)Nc2nc(-c3cccc(-c4ccncc4)c3)cs2)c1 [Compound 86]

>  <Emax>
> 60%

$$$$
>  <molecule>
C[C@@H]1CN(c2cccc(-c3csc(NC(=O)CNC(=O)c4ccc5c(c4)[C@](C)(C#N)COC5)n3)c2)C[C@H](C)O1 [Compound 254]

>  <Emax>
> 95%

$$$$

Ask: Lab request: please report Emax under test system UniProt:P51532 for C[C@@H]1CN(c2cccc(-c3csc(NC(=O)CNC(=O)c4ccc5c(c4)C4(CCO5)CCO4)n3)n2)C[C@H](C)O1 (stereo partly shown) [Compound 360]
Result: > 95%

Ask: Now the same for CC(C)(CN)c1cccc(C(=O)NCC(=O)Nc2nc(-c3cccc(-c4cccc(CN)c4)c3)cs2)c1 [Compound 209]
Result: > 50%

* * *

target.system: BRG-1 (Homo sapiens)
experiment: ATPase catalytic activity assay of BRG-1 (ADP-Glo)
Format: biochemical
cond: ATPase catalytic activity, ADP-Glo; read-out: BRG1 Max % Inhibition
measurement.type: Emax

>  <compound>
C[C@@]1(C#N)COCc2ccc(C(=O)NCC(=O)Nc3nc(-c4cccc([C@]56CCOC[C@H]5C6)c4)cs3)cc21 [Compound 295]

>  <value.measured>
> 95%

$$$$
>  <compound>
CC(C)S(=O)(=O)c1cccc(C(=O)NCC(=O)Nc2nc(-c3cccc(-c4cc(C#N)cc(CO)c4)c3)cs2)c1 [Compound 23]

>  <value.measured>
> 80%

$$$$
>  <compound>
COc1cccc(-c2csc(NC(=O)CNC(=O)c3cc(F)c4c(c3)[C@@](C)(C#N)COC4)n2)c1 [Compound 269]

>  <value.measured>
> 90%

$$$$

Here is another compound to look at.
Ask: Lab request: please report Emax under test system BRG-1 (Homo sapiens) for C[C@@]1(C#N)COCc2ccc(C(=O)NCC(=O)Nc3nc(-c4cccc(F)c4)cs3)cc21 [Compound 322]
Result: > 95%

Data provenance is patent US12685735B2.
